- assay_system: HIV-1 protease (Human immunodeficiency virus type 1 group M subtype B, UniProt P04585)
- Construct: made in house; host or cells: E. coli BL21 (dE3)pLysS, pET30a vector
- protocol_description: HIV-1 Protease Inhibition Assay
- Assay type: biochemical
- conditions_used: fluorogenic substrate assay
Each entry below lists one item and its recorded log10 IC50 value.
Annotation: log10 of IC50, nM basis.

| molecule | assay_system | log10 IC50 |
| --- | --- | --- |
| CC(C)CN(C[C@@H](O)[C@H](Cc1ccccc1)NC(=O)OC1CC2CCO[C@@H]2C1)C(=O)c1cc(O)cc(O)c1 (some centres unmarked) | HIV-1 protease (Human immunodeficiency virus type 1 group M subtype B, UniProt P04585) | 3.48 |
| COc1ccc(S(=O)(=O)N(C[C@@H](O)[C@H](Cc2ccccc2)NC(=O)O[C@H]2C[C@H]3CCO[C@H]3C2)C2CN(C)C2)cc1 | HIV-1 protease (Human immunodeficiency virus type 1 group M subtype B, UniProt P04585) | 1.94 |
| COc1ccc(S(=O)(=O)N(C[C@@H](O)[C@H](Cc2ccccc2)NC(=O)O[C@H]2CO[C@H]3OCCC32)C2CN(C(=O)OC(C)(C)C)C2)cc1 (some centres unmarked) | HIV-1 protease (Human immunodeficiency virus type 1 group M subtype B, UniProt P04585) | 0.88 |

Query (molecule): C=CCCCCN(C[C@@H](O)[C@H](Cc1ccccc1)NC(=O)O[C@H]1CO[C@H]2OCCC21)S(=O)(=O)c1cccc(OCC=C)c1 (some centres unmarked) ; field requested: log10 IC50
0.96

----------
- assay_system: HIV-1 protease (Human immunodeficiency virus type 1 group M subtype B, UniProt P04585)
- Construct: made in house; host or cells: E. coli BL21 (dE3)pLysS, pET30a vector
- protocol_description: HIV-1 Protease Inhibition Assay
- Type: biochemical
- conditions_used: fluorogenic substrate assay
endpoint_name: IC50 (nM)
Just the number in nM, nothing appended.

| compound | readout_value |
| --- | --- |
| C=CCCCCN(C[C@@H](O)[C@H](Cc1ccccc1)NC(=O)O[C@@H]1CC2CCO[C@@H]2C1)S(=O)(=O)c1cccc(OCC=C)c1 (stereo partly drawn) [Compound 225f] | 11 |
| COc1ccc(S(=O)(=O)N(CC(C)C)C[C@@H](O)[C@H](Cc2ccccc2)NC(=O)O[C@H]2CC[C@]3(CCCO3)C2)cc1 [Compound 145d] | 4.6 |
| COc1ccc(S(=O)(=O)N(C[C@@H](O)[C@H](Cc2ccccc2)NC(=O)O[C@@H]2CC3CCO[C@@H]3C2)C2CN(C)C2)cc1 (stereo partly drawn) | 5.6 |

Form field - read-out: IC50; system: HIV-1 protease (Human immunodeficiency virus type 1 group M subtype B, UniProt P04585); submitted item: `Cc1ccc(S(=O)(=O)N(CC(C)C)C[C@@H](O)[C@H](CC2CCN(Cc3ccccc3)CC2)NC(=O)O[C@H]2CCOC2)cc1`
540

Form field - read-out: IC50; system: HIV-1 protease (Human immunodeficiency virus type 1 group M subtype B, UniProt P04585); submitted item: O=C(N[C@@H](Cc1ccccc1)[C@H](O)CN1CCCCCCCC(O)c2cccc(c2)S1(=O)=O)O[C@@H]1CC2CCO[C@@H]2C1 (stereo partly drawn)
4

Form field - read-out: IC50; system: HIV-1 protease (Human immunodeficiency virus type 1 group M subtype B, UniProt P04585); submitted item: CC(C)(C)OC(=O)N[C@@H](Cc1ccccc1)[C@H](O)CN(C[C@H]1CCC(=O)N1)S(=O)(=O)c1ccc([N+](=O)[O-])cc1 [Compound 307a]
7

Form field - read-out: IC50; system: HIV-1 protease (Human immunodeficiency virus type 1 group M subtype B, UniProt P04585); submitted item: COc1ccc(S(=O)(=O)N(CC(C)C)C[C@@H](O)[C@H](Cc2ccccc2)NC(=O)OC2CC[C@@]3(CCCO3)C2)cc1 (stereo partly drawn) [Compound 145c]
15

Form field - read-out: IC50; system: HIV-1 protease (Human immunodeficiency virus type 1 group M subtype B, UniProt P04585); submitted item: O=C1CC[C@H](CN(C[C@@H](O)[C@H](Cc2ccccc2)NC(=O)OC2CC[C@H]3OCC[C@@H]23)S(=O)(=O)c2ccc([N+](=O)[O-])cc2)N1 (stereo partly drawn)
0.34

Form field - read-out: IC50; system: HIV-1 protease (Human immunodeficiency virus type 1 group M subtype B, UniProt P04585); submitted item: O=C(N[C@@H](Cc1ccccc1)[C@H](O)CN1CCCC/C=C\CCCCOc2cccc(c2)S1(=O)=O)O[C@@H]1CC2CCO[C@@H]2C1 (stereo partly drawn)
9.3

Form field - read-out: IC50; system: HIV-1 protease (Human immunodeficiency virus type 1 group M subtype B, UniProt P04585); submitted item: CC(C)CN(C[C@@H](O)[C@H](Cc1ccccc1)NC(=O)OC1CO[C@H]2OCCC12)S(=O)(=O)c1cncc([N+](=O)[O-])c1 (stereo partly drawn)
3.5

Form field - read-out: IC50; system: HIV-1 protease (Human immunodeficiency virus type 1 group M subtype B, UniProt P04585); submitted item: COc1ccc(S(=O)(=O)N(C[C@H]2CCC(=O)N2)C[C@@H](O)[C@H](Cc2ccccc2)NC(=O)OC2CC[C@H]3OCC[C@@H]23)cc1 (stereo partly drawn)
0.1

Form field - read-out: IC50; system: HIV-1 protease (Human immunodeficiency virus type 1 group M subtype B, UniProt P04585); submitted item: CC(C)CN(C[C@@H](O)[C@H](Cc1ccccc1)NC(=O)O[C@@H]1CC2CCO[C@@H]2C1)S(=O)(=O)c1ccc(O)c(O)c1 (stereo partly drawn)
3.9

----------
- assay_system: HIV-1 protease (Human immunodeficiency virus type 1 group M subtype B, UniProt P04585)
- Construct: made in house; host or cells: E. coli BL21 (dE3)pLysS, pET30a vector
- protocol_description: HIV-1 Protease Inhibition Assay
- Format: biochemical
- conditions_used: fluorogenic substrate assay
Mark Condition met only for IC50 values smaller than 30 nM; exact matches and larger values are Condition not met.

| compound | class |
| --- | --- |
| CC(C)CN(C[C@@H](O)[C@H](Cc1ccccc1)NC(=O)OC1CC2CCO[C@@H]2C1)S(=O)(=O)c1ccc(C=NO)cc1 (stereo partly drawn) | Condition met |
| C=CCCCCN(C[C@@H](O)[C@H](Cc1ccccc1)NC(=O)O[C@H]1CO[C@H]2OCCC21)S(=O)(=O)c1cccc(OCCC=C)c1 (stereo partly drawn) | Condition met |
| CC(C)(C)NC(=O)[C@@H]1C[C@@H]2CCCC[C@@H]2CN1C[C@@H](O)[C@H](Cc1ccccc1)NC(=O)O[C@H]1CCC2(CCCO2)C1 (stereo partly drawn) [Compound 145a] | Condition not met |
| COc1ccc(S(=O)(=O)N(C[C@@H](O)[C@H](Cc2ccccc2)NC(=O)O[C@H]2CCOC2)C2CN(C)C2)cc1 | Condition not met |

Okay, next one:
Does the reported IC50 of `COc1ccc(S(=O)(=O)N(C[C@H]2CCC(=O)N2)C[C@@H](O)[C@H](Cc2ccccc2)NC(=O)OC(C)(C)C)cc1` stay below 30 nM?
Condition met

----------
- assay_system: HIV-1 protease (Human immunodeficiency virus type 1 group M subtype B, UniProt P04585)
- Construct: made in house; host or cells: E. coli BL21 (dE3)pLysS, pET30a vector
- protocol_description: HIV-1 Protease Inhibition Assay
- Format: biochemical
- conditions_used: fluorogenic substrate assay
Each entry below lists one item and its recorded pIC50 value.
Friendly reminder that pIC50 comes from taking -log10 of the concentration in mol/L.

Completed entries (count: 2):
| compound | readout_value |
| --- | --- |
| CC(C)CN(C[C@@H](O)[C@H](Cc1ccccc1)NC(=O)OC1CC2CCO[C@@H]2C1)S(=O)(=O)c1cccc(C=NO)c1 (stereo partly drawn) [Compound 129] | 8.54 |
| CC(C)CN(C[C@@H](O)[C@H](Cc1ccccc1)NC(=O)OC(C)(C)C)S(=O)(=O)c1cncc([N+](=O)[O-])c1 [Compound 163] | 6.94 |

Form field - read-out: pIC50; system: HIV-1 protease (Human immunodeficiency virus type 1 group M subtype B, UniProt P04585); submitted item: CC(C)CN(C[C@@H](O)[C@H](Cc1ccccc1)NC(=O)O[C@@H]1CC2CCO[C@@H]2C1)S(=O)(=O)c1ccc(/C=N/O)cc1 (stereo partly drawn) [Compound 256]
8.77

Form field - read-out: pIC50; system: HIV-1 protease (Human immunodeficiency virus type 1 group M subtype B, UniProt P04585); submitted item: O=C(N[C@@H](Cc1ccccc1)[C@H](O)CN1CCCCCCCCCOc2ccccc2COC1=O)O[C@@H]1CC2CCO[C@@H]2C1 (stereo partly drawn) [Compound 228]
5.66

Form field - read-out: pIC50; system: HIV-1 protease (Human immunodeficiency virus type 1 group M subtype B, UniProt P04585); submitted item: O=C(N[C@@H](Cc1ccccc1)[C@H](O)CN1CCCC/C=C/CCCOc2cccc(c2)S1(=O)=O)O[C@H]1CO[C@H]2OCCC21 (stereo partly drawn) [Compound 225a]
8.11

Form field - read-out: pIC50; system: HIV-1 protease (Human immunodeficiency virus type 1 group M subtype B, UniProt P04585); submitted item: Cc1ccc(S(=O)(=O)N(CC(C)C)C[C@@H](O)[C@H](CC2CCN(C(=O)c3ccccc3)CC2)NC(=O)OC2CO[C@H]3OCCC23)cc1 (stereo partly drawn) [Compound 146]
8.74
